// provenance: ChEMBL document CHEMBL1155477

- measured_target: Rho-associated protein kinase 1 (Homo sapiens, UniProt Q13464)
- Sequence (Q13464 2-1354 limits assumed): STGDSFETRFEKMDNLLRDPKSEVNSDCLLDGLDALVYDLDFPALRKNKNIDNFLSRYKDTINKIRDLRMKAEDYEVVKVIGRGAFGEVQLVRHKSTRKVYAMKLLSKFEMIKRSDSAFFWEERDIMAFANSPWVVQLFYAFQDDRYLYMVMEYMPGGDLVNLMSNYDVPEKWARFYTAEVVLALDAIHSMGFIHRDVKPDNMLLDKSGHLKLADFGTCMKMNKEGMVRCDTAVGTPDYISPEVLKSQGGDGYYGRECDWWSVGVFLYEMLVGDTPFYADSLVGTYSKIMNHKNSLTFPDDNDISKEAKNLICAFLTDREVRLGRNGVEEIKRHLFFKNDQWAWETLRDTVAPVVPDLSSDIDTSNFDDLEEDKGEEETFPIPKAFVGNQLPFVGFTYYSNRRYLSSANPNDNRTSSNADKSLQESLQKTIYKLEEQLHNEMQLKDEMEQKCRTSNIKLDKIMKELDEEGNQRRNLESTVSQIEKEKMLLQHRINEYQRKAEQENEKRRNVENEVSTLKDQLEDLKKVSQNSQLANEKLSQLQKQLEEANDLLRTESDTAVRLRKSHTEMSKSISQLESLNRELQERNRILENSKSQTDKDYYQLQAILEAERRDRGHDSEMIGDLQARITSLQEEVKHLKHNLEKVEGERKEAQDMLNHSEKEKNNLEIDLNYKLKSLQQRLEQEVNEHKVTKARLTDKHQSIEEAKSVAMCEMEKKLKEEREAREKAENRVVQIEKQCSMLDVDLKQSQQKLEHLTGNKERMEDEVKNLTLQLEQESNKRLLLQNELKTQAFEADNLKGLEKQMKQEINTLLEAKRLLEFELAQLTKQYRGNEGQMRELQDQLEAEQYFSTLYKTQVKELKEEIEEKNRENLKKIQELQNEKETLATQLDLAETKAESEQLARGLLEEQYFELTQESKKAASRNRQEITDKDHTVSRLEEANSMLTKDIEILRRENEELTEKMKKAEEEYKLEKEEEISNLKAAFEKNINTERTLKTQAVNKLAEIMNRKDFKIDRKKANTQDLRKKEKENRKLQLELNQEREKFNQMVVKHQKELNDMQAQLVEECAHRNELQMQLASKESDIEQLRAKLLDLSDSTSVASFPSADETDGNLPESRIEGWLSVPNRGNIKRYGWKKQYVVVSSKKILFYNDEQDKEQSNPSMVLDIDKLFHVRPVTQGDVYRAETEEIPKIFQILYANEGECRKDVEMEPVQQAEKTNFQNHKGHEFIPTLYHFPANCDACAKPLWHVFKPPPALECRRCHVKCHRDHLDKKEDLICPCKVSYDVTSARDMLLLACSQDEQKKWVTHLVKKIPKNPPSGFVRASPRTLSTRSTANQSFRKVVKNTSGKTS
- run_description: Inhibition of ROCK1 assessed as ATP cunsumption relative to control
Measured Emax by item
measured_parameter: Emax

[
  {
    "compound": "COc1cccc(C(N)c2ccc3sc(-c4ccnc(N)n4)c(C)c3c2)c1 (racemic)",
    "measured_target": "Rho-associated protein kinase 1 (Homo sapiens, UniProt Q13464)",
    "measured_parameter": "Emax",
    "result": "46%"
  },
  {
    "compound": "Cc1cccc(C(N)c2ccc3sc(-c4ccnc(N)n4)c(C)c3c2)c1 (racemic)",
    "measured_target": "Rho-associated protein kinase 1 (Homo sapiens, UniProt Q13464)",
    "measured_parameter": "Emax",
    "result": "67%"
  },
  {
    "compound": "COc1ccc(C(N)c2ccc3sc(-c4ccnc(N)n4)c(C)c3c2)cc1 (racemic)",
    "measured_target": "Rho-associated protein kinase 1 (Homo sapiens, UniProt Q13464)",
    "measured_parameter": "Emax",
    "result": "56%"
  },
  {
    "compound": "Cc1c(-c2ccnc(N)c2)sc2ccc(Cl)cc12",
    "measured_target": "Rho-associated protein kinase 1 (Homo sapiens, UniProt Q13464)",
    "measured_parameter": "Emax",
    "result": "44%"
  },
  {
    "compound": "CNc1nccc(-c2sc3ccc(Cl)cc3c2C)n1",
    "measured_target": "Rho-associated protein kinase 1 (Homo sapiens, UniProt Q13464)",
    "measured_parameter": "Emax",
    "result": "17%"
  }
]
